B1: VENTX (parent)
chain: VFQHHQYLSPLERKRLAREMQLSE

Variants of: B1
test-method-notes: protein stability index of a GFP-peptide fusion (GPS, HEK-293T) (PSI 1-6); higher = more stable;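 also: lentivirally expressed fusions sorted by FACS into six bins by GFP to DsRed ratio, PSI derived from sequencing read proportions per bin multiplied by bin number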
experimental-parameters: c terminus: a fixed tail appended
Each record here notes measured protein stability index.
Give the figure by itself; no unit, no explanation.

[
  {
    "mutation-name": "K14F",
    "protein stability index": 1.75
  },
  {
    "mutation-name": "S9V",
    "protein stability index": 2.08
  },
  {
    "mutation-name": "M20R",
    "protein stability index": 3.25
  }
]

// query Look up protein stability index: `A17D`
// result 2.45

// query Look up protein stability index: `S9L`
// result 2.22

// query Look up protein stability index: `E19A`
// result 2.08

// query Look up protein stability index: `S9W`
// result 1.52

// query Look up protein stability index: `L8K`
// result 3.6

// query Look up protein stability index: `K14P`
// result 2.4

// query Look up protein stability index: `S9R`
// result 2.64

// query Look up protein stability index: `M20I`
// result 2.39

// query Look up protein stability index: `R18F`
// result 2.21

// query Look up protein stability index: `A17W`
// result 2.24

// query Look up protein stability index: `E19F`
// result 1.76

// query Look up protein stability index: `E24K`
// result 2.29

// query Look up protein stability index: `L22N`
// result 3.04

// query Look up protein stability index: `Q3F`
// result 1.66

These entries and their values trace back to the supplement of paper PMC10567573.
